- measurement_target: Delta-type opioid receptor (Rattus norvegicus, UniProt P33533)
- Sequence (P33533 whole entry): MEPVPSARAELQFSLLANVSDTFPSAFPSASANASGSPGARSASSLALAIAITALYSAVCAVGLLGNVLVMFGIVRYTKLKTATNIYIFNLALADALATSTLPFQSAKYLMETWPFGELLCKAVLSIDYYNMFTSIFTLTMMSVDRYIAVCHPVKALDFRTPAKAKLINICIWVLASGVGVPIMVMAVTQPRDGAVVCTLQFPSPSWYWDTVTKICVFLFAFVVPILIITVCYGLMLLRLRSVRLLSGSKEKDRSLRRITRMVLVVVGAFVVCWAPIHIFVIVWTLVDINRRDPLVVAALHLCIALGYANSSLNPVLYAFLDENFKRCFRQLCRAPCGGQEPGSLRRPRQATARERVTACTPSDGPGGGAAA
- test_summary: Displacement of [3H]DPDPE from rat cortex delta opioid receptor after 2.5 hrs by liquid scintillation counting analysis
pKi: −log10 of the molar value. Where a SMILES comes first, the peptide text is derived from it. [ ]: non-standard residue; d: D form. ξ: configuration not given here. Dmt = Cc1cc(O)cc(C)c1C[C@H](N)C(=O)O; ξTiq(1-COOH) = O=C(O)C1NCCc2ccccc21; β3hF = N[C@H](CC(=O)O)Cc1ccccc1
pKi overview

>  <molecule>
NC(=O)[C@@H](O)[C@H](Cc1ccccc1)NC(=O)[C@H](Cc1c[nH]c2ccccc12)NC(=O)[C@@H]1CCCN1C(=O)[C@@H](N)Cc1ccc(O)cc1

>  <pKi>
6.29

$$$$
>  <molecule>
NC(=O)[C@H](O)[C@@H](Cc1ccccc1)NC(=O)[C@H](Cc1c[nH]c2ccccc12)NC(=O)[C@@H]1CCCN1C(=O)[C@@H](N)Cc1ccc(O)cc1

>  <pKi>
6.36

$$$$
>  <molecule>
Cc1cc(O)cc(C)c1C[C@H](N)C(=O)N1CCc2ccccc2C1C(=O)N[C@@H](Cc1ccccc1)C(=O)N[C@H](CC(N)=O)Cc1ccccc1 (stereo partly drawn) (H-[Dmt][ξTiq(1-COOH)]F[β3hF]-NH2)

>  <pKi>
9.00

$$$$
>  <molecule>
NC(=O)[C@H](O)[C@H](Cc1ccccc1)NC(=O)[C@H](Cc1c[nH]c2ccccc12)NC(=O)[C@@H]1CCCN1C(=O)[C@@H](N)Cc1ccc(O)cc1

>  <pKi>
6.34

$$$$
>  <molecule>
NC(=O)C[C@H](Cc1ccccc1)NC(=O)[C@H](Cc1ccccc1)NC(=O)[C@@H]1CCCN1C(=O)[C@@H](N)Cc1ccc(O)cc1

>  <pKi>
5.60

$$$$
>  <molecule>
Cc1cc(O)cc(C)c1C[C@H](N)C(=O)N1CCc2ccccc2C1C(=O)N[C@@H](Cc1c[nH]c2ccccc12)C(=O)N[C@H](CC(N)=O)Cc1ccccc1 (stereo partly drawn) (H-[Dmt][ξTiq(1-COOH)]W[β3hF]-NH2)

>  <pKi>
9.00

$$$$
>  <molecule>
NC(=O)[C@@H](O)[C@@H](Cc1ccccc1)NC(=O)[C@H](Cc1c[nH]c2ccccc12)NC(=O)[C@@H]1CCCN1C(=O)[C@@H](N)Cc1ccc(O)cc1

>  <pKi>
6.54

$$$$
>  <molecule>
Cc1cc(O)cc(C)c1C[C@H](N)C(=O)N1CCc2ccccc2C1C(=O)N[C@@H](Cc1ccccc1)C(=O)N[C@@H](Cc1ccccc1)[C@H](O)C(N)=O (some centres not stated)

>  <pKi>
9.00

$$$$
>  <molecule>
Cc1cc(O)cc(C)c1C[C@H](N)C(=O)N1CCc2ccccc2C1C(=O)N[C@H](CC(=O)N[C@@H](Cc1ccccc1)C(N)=O)Cc1ccccc1 (stereo partly drawn) (H-[Dmt][ξTiq(1-COOH)][β3hF]F-NH2)

>  <pKi>
9.00

$$$$
>  <molecule>
Cc1cc(O)cc(C)c1C[C@H](N)C(=O)N1CCc2ccccc2C1C(=O)N[C@@H](Cc1c[nH]c2ccccc12)C(=O)N[C@@H](Cc1ccccc1)[C@H](O)C(N)=O (some centres not stated)

>  <pKi>
9.10

$$$$
>  <molecule>
Cc1cc(O)cc(C)c1C[C@H](N)C(=O)N1CCc2ccccc2C1C(=O)N[C@@H](Cc1ccccc1)[C@@H](O)C(=O)N[C@@H](Cc1ccccc1)C(N)=O (some centres not stated)

>  <pKi>
9.15

$$$$
>  <molecule>
N=C(N)NCCC[C@H](NC(=O)[C@H](O)[C@H](Cc1ccccc1)NC(=O)[C@@H]1CCCN1C(=O)[C@@H](N)Cc1ccc(O)cc1)C(N)=O

>  <pKi>
6.32

$$$$
